tested-target: hERG potassium channels (Homo sapiens (Human))
Sequence (Q12809 whole entry): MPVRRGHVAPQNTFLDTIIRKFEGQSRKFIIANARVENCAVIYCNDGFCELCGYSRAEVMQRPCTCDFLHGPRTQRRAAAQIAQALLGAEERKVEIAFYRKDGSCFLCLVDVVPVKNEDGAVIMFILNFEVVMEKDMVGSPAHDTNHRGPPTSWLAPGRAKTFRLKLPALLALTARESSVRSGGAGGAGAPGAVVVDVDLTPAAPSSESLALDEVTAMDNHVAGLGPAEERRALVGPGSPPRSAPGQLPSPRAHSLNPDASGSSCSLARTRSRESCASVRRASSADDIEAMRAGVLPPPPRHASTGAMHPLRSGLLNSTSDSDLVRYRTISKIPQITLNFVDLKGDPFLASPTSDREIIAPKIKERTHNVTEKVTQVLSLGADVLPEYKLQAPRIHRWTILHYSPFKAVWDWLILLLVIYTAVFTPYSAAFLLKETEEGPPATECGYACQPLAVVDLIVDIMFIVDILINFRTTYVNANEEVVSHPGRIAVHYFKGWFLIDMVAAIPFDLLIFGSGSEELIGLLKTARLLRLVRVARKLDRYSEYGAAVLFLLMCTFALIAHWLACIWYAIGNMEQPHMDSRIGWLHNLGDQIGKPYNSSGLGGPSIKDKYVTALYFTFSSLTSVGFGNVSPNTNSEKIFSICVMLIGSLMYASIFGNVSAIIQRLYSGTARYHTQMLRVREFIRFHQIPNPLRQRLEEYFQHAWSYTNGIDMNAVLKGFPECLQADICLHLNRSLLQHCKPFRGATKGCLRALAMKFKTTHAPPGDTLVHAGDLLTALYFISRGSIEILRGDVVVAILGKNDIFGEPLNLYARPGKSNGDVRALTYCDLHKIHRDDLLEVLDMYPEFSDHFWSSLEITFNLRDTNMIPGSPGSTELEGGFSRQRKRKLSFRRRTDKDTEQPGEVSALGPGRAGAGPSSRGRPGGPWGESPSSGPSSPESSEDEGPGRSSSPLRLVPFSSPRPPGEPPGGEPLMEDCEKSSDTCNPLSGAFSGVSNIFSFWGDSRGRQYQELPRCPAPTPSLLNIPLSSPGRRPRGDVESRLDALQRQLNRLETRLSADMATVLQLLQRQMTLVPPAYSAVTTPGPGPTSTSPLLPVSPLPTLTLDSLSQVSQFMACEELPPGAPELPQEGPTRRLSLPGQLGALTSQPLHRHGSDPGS
experiment: hERG inhibitory activity, whole-cell patch clamp in CHO-hERG cells
applied-conditions: read-out: hERG inhibitory activity IC50; CHO-hERG cells, whole-cell patch clamp, tail current at -50 mV
The entries below come with measured IC50 values attached.

Examples from the recorded data:
CC(C)C1Cc2cc(CNC(=O)N(Cc3ccc(F)cn3)C3CCN(C)CC3)ccc2O1 (stereo not shown) [Compound 41] : 790 nM
CN1CCC(N(Cc2ccc(F)cn2)C(=O)NCc2ccc(OC(CF)CF)cc2)CC1 [Compound 45] : 5500 nM
CC(C)COc1ccc(CNC(=O)N(Cc2ccc(F)cc2)C2CCN(C)CC2)nc1 [Compound 19] : 480 nM

Proceeding to the next compound to report its IC50.
Qu. # get_value(readout='IC50', item= CC1(C)Cc2cc(CNC(=O)N(Cc3ccc(F)cn3)C3CCNCC3)ccc2O1 [Compound 23] )
Ans. > 10000 nM

###

tested-target: 5-HT2A receptor (Homo sapiens (Human))
experiment: Screening for 5-HT2A inverse agonistic activity (NIH3T3-5-HT2A R cells, Bright-Glo luciferase, 120 h)
Type: cell-based
applied-conditions: NIH3T3-5HT2AR cells, cell inhibition rate
The entries below come with measured IC50 values attached.

Examples from the recorded data:
CN1CCC(N(Cc2ccc(F)cn2)C(=O)NCc2ccc(OCC(F)(F)F)c(F)c2)CC1 [Compound 26] : 9.79 nM
CC(C)COc1ccc(CNC(=O)N(Cc2ccc(F)cn2)C2CCN(C)CC2)cc1 [Compound 1] : 22.8 nM
CC(C)COc1ccc(CNC(=O)N(Cc2ccc(F)cn2)C2CCN(CC3CCCCC3)CC2)cc1 [Compound 63] : 20.8 nM

Qu. # get_value(readout='IC50', item= CN1CCC(N(Cc2ccc(F)cc2)C(=O)NCc2ccc(OCCF)cc2)CC1 [Compound 56] )
Ans. 9.9 nM

Qu. Next entry: CN1CCC(N(Cc2ncc(F)cc2F)C(=O)NCc2ccc(OCCCC(F)F)cc2)CC1 [Compound 95]
Ans. 27.9 nM

Qu. Next entry: CN1CCC(N(Cc2ccc(F)cn2)C(=O)NCc2ccc(OCC(F)(F)F)cc2)CC1 [Compound 59]
Ans. 2.04 nM

Qu. Next entry: CN1CCC(N(Cc2ccc(F)cc2)C(=O)NCc2ccc(OCC(F)(F)F)cc2)CC1 [Compound 65]
Ans. 18.4 nM

Qu. Next entry: CN1CCC(N(Cc2ccc(F)cn2)C(=O)NCc2ccc(OCCCCF)cc2)CC1 [Compound 62]
Ans. 32.8 nM

###

tested-target: 5-HT2A receptor (Homo sapiens (Human), UniProt P28223)
Sequence (P28223 whole entry): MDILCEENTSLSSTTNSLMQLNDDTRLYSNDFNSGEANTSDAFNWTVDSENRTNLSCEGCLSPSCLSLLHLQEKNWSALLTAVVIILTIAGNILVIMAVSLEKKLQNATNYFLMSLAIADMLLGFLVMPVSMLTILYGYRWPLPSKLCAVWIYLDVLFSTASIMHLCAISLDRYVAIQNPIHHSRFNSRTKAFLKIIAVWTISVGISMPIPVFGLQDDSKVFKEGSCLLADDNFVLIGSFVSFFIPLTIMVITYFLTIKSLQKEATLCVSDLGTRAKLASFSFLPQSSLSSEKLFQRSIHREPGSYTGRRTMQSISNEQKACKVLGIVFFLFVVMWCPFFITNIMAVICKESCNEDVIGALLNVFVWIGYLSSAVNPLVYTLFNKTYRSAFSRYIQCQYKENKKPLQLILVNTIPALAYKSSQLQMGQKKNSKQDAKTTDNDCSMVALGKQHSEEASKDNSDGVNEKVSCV
experiment: Test for 5-HT2A antagonistic activity (calcium ion antagonism, FLIPR, CHO-K1/5-HT2A cells)
Assay type: cell-based
applied-conditions: 100 nM a-methyl-5-HT, Ca2+ signal
measurement-kind: log10 of IC50 (log10 of the value in nM)
In our notation, the value equals log10 of IC50 in nM.

Examples from the recorded data:
CN1CCC(N(Cc2ncc(F)cc2F)C(=O)NCc2ccc(OCCC(F)F)cc2)CC1 : 0.63
CCOc1ccc(CNC(=O)N(Cc2ccc(F)cn2)C2CCN(C)CC2)cc1 : 0.61
CN1CCC(N(Cc2ncc(F)cc2F)C(=O)NCc2ccc(OC(C)(C)C)cc2)CC1 : 0.44

Qu. # get_value(readout='log10 of IC50', item= CN1CCC(N(Cc2ccc(F)cc2)C(=O)NCc2ccc(OCC(F)F)cc2)CC1 )
Ans. 0.81

Qu. Next entry: CC(C)COc1ccc(CNC(=O)N(Cc2ccc(F)cc2)C2CCN(C)CC2)cn1
Ans. 0.96

Qu. Next entry: CN1CCC(N(Cc2ccc(F)cn2)C(=O)NCc2ccc(OCCCC(F)(F)F)cc2)CC1
Ans. 0.58

Qu. Next entry: CC(C)OCc1ccc(CNC(=O)N(Cc2ccc(F)cn2)C2CCN(C)CC2)cc1
Ans. 0.31

Qu. Next entry: CN1CCC(N(Cc2ccc(F)cn2)C(=O)NCc2ccc(OC(CF)CF)cc2)CC1
Ans. 0.38

Qu. Next entry: CN1CCC(N(Cc2ccc(F)cn2)C(=O)NCc2ccc3c(c2)CC(C)(C)O3)CC1
Ans. 0.54

Qu. Next entry: CN1CCC(N(Cc2ccc(F)cc2)C(=O)NCc2ccc(OCC(F)(F)F)cc2)CC1
Ans. 0.90

Qu. Next entry: CN1CCC(N(Cc2ccc(F)cn2)C(=O)NCc2ccc(OCC(F)(F)F)cc2)CC1
Ans. -0.27

Qu. Next entry: CN1CCC(N(Cc2ccc(F)cn2)C(=O)NCc2ccc(OCC(F)(F)F)c(F)c2)CC1
Ans. 0.84

Qu. Next entry: CC(C)COc1ccc(CNC(=O)N(Cc2ncc(F)cn2)C2CCN(C)CC2)cc1
Ans. 0.28

Qu. Next entry: CN1CCC(N(Cc2ncc(F)cc2F)C(=O)NCc2ccc(OCCCC(F)F)cc2)CC1
Ans. 0.71

The measurements presented in this section are drawn from patent US20230348421A1.
